# Test system: OVCAR-3 ovarian
# protocolNotes: NCI tumour cell line growth inhibition, 48 h
Is TGI at least 30 µM? Then TRUE. If not, FALSE.

In: Identify whether the reported TGI of the following compound is 30 µM or greater: "O=C1COc2cc(N3CCN(c4cccc(C(F)(F)F)c4)CC3)ccc2N1"
Out: TRUE

In: Identify whether the reported TGI of the following compound is 30 µM or greater: "Cc1cn2c(/C=C3/C(=O)Nc4c3ccc3ccccc43)c(C(F)(F)F)nc2s1"
Out: FALSE

In: Identify whether the reported TGI of the following compound is 30 µM or greater: C=C(C(=O)O[C@H]1C/C(C)=C/CC/C(CO)=C/[C@H]2C(=O)OC(=C)[C@H]12)C(O)CO (stereo not given in full)
Out: FALSE

In: Identify whether the reported TGI of the following compound is 30 µM or greater: "O=C1c2cc(Cc3ccccc3)c(=O)c(Cc3ccccc3)cc2C(=O)c2cc(Cc3ccccc3)c(=O)c(Cc3ccccc3)cc21"
Out: TRUE

In: Identify whether the reported TGI of the following compound is 30 µM or greater: "Cc1c(C(=O)c2ccc(N)c3ccccc23)c2ccccc2n1CCN1CCOCC1"
Out: TRUE

In: Identify whether the reported TGI of the following compound is 30 µM or greater: "CCn1c(=O)c2nc(SC)sc2n(-c2ccc(C)cc2)c1=O"
Out: TRUE

In: Identify whether the reported TGI of the following compound is 30 µM or greater: "CC(C)(C)OC(=O)[C@@H]1CCC(=O)N1C1(c2ccccc2)c2ccccc2-c2ccccc21"
Out: TRUE

In: Identify whether the reported TGI of the following compound is 30 µM or greater: "c1nc(NCCc2cnc[nH]2)c2[nH]cnc2n1"
Out: TRUE

In: Identify whether the reported TGI of the following compound is 30 µM or greater: "COc1ccc2c(c1)nc(NNC(=O)c1cnccn1)c1cccn12"
Out: FALSE

In: Identify whether the reported TGI of the following compound is 30 µM or greater: "CCCCc1ccc(Nc2ncc3ncn(COCCO)c3n2)cc1"
Out: TRUE

In: Identify whether the reported TGI of the following compound is 30 µM or greater: "COc1cc2c3c(n(CCCN)c(=O)c2cc1OC)-c1ccc([N+](=O)[O-])cc1C3=O"
Out: TRUE

In: Identify whether the reported TGI of the following compound is 30 µM or greater: CC(C)(C)C1CCC2c3c([nH]c4ccccc34)C3C(=O)N(c4ccc(C#N)cc4)C(=O)C3C2C1 (stereo not given)
Out: TRUE

In: Identify whether the reported TGI of the following compound is 30 µM or greater: "Cc1c(C(=O)C/C(=N/NC(=O)c2ccccc2)C(=O)Nc2ccc(Cl)cc2)[n+](=O)c2ccccc2n1[O-]"
Out: TRUE

In: Identify whether the reported TGI of the following compound is 30 µM or greater: "C=C1C(=O)O[C@H]2[C@H]1CC/C(COC(=O)CCCCCC(=O)OC/C1=C/CC[C@@]3(C)O[C@H]3[C@H]3OC(=O)C(=C)[C@@H]3CC1)=C\CC[C@@]1(C)O[C@@H]21"
Out: FALSE

In: Identify whether the reported TGI of the following compound is 30 µM or greater: "O=C(Nc1sccc1S(=O)(=O)c1ccc(Cl)cc1)c1ccc(F)cc1F"
Out: TRUE

In: Identify whether the reported TGI of the following compound is 30 µM or greater: O=C(O)C(Cc1cnc[nH]1)N1C(=O)c2ccccc2C1=O (stereo not given)
Out: TRUE

In: Identify whether the reported TGI of the following compound is 30 µM or greater: "CC(C)N(C(=O)c1cccc(C(=O)N(C(C)C)C(C)C)c1)C(C)C"
Out: TRUE

In: Identify whether the reported TGI of the following compound is 30 µM or greater: "O=[N+]([O-])c1cccc(/C=N/NC2=CS(=O)(=O)C=C2)c1"
Out: TRUE

In: Identify whether the reported TGI of the following compound is 30 µM or greater: "O=C(O)CSc1ccccc1C(=O)O"
Out: TRUE

Ref: PubChem BioAssay (NCI)
